Task for the reader: assign each of the following molecules its reported GI50.
test: Antiproliferative activity against human UACC61 cells assessed as growth inhibition after 48 hrs by sulforhodamine B assay; type: functional
Give your result in µM as a bare value.

Look at this molecule and give its reported GI50. CCOC(=O)c1cc2c([nH]c3ccc(C)cc32)c(-c2ccc(OC)cc2)n1
23.3

Look at this molecule and give its reported GI50. c1ccc(Cn2nnnc2-c2cc3c([nH]c4ccccc43)c(-c3ccccc3)n2)cc1
37

Look at this molecule and give its reported GI50. COC(=O)c1cc2c([nH]c3ccccc32)c(-c2ccccc2)n1
5.45

Look at this molecule and give its reported GI50. COC(=O)c1cc2c([nH]c3ccccc32)c(-c2cccc([N+](=O)[O-])c2)n1
7.02

Look at this molecule and give its reported GI50. COC(=O)c1cc2c([nH]c3ccccc32)c(-c2ccc(OC)cc2)n1
2.61

Look at this molecule and give its reported GI50. CCOC(=O)c1cc2c([nH]c3ccc(OC)cc32)c(-c2ccc(N(C)C)cc2)n1
0.28

Look at this molecule and give its reported GI50. Fc1ccc(-c2nc(-c3nnn[nH]3)cc3c2[nH]c2ccccc23)cc1
63.3

Look at this molecule and give its reported GI50. COc1cccc2c1C(=O)c1c(O)c3c(c(O)c1C2=O)C[C@@](O)(C(=O)CO)C[C@@H]3O[C@H]1C[C@H](N)[C@H](O)[C@H](C)O1
0.047

Look at this molecule and give its reported GI50. COC(=O)c1cc2c([nH]c3ccccc32)c(-c2ccc(O)cc2)n1
12

Look at this molecule and give its reported GI50. CCOC(=O)c1cc2c([nH]c3ccc(OC)cc32)c(-c2ccccc2Cl)n1
7.71

Look at this molecule and give its reported GI50. CCOC(=O)c1cc2c([nH]c3ccc(C)cc32)c(-c2ccccc2)n1
28.2

Look at this molecule and give its reported GI50. COc1ccc(-c2nc(-c3nnnn3Cc3ccccc3)cc3c2[nH]c2ccccc23)cc1
88.1

Look at this molecule and give its reported GI50. COC(=O)c1cc2c([nH]c3ccccc32)c(-c2ccc(N(C)C)cc2)n1
3.61

Look at this molecule and give its reported GI50. CCOC(=O)c1cc2c([nH]c3ccc(OC)cc32)c(-c2cccc([N+](=O)[O-])c2)n1
19.7

Look at this molecule and give its reported GI50. COC(=O)c1cc2c([nH]c3ccccc32)c(-c2ccccc2Cl)n1
5.76
